Hey, just so you know, these numbers are from PubChem BioAssay (NCI).

tested on: SR leukemia; experiment: NCI tumour cell line growth inhibition, 48 h
Measured TGI, listed per entry.
measuredParameter: TGI

[[record]]
smilesinput = "CCn1nc2c3c(ncn3C(C)(C)O2)c1=O"
measuredparameter = "TGI"
result = "> 100 µM"

[[record]]
smilesinput = "CCOP(=O)(OCC)c1c(C(=O)OC)cc(=O)[nH]c1-c1ccc(C)cc1"
measuredparameter = "TGI"
result = "11.5 µM"

[[record]]
smilesinput = "C=CCCC(=O)CC(O)(C(F)(F)F)C(F)(F)F"
measuredparameter = "TGI"
result = "> 100 µM"

[[record]]
smilesinput = "CCCCCCCCCCCCCCCCCC(=O)O[C@H](COC(=O)CCCCCCCCCCC)COC(=O)CCCCCCCCCCCCCCC"
measuredparameter = "TGI"
result = "> 100 µM"

[[record]]
smilesinput = "COc1ccc(O)cc1"
measuredparameter = "TGI"
result = "> 100 µM"

[[record]]
smilesinput = "O=C1c2ccccc2-c2nc(-c3cccc([N+](=O)[O-])c3)nnc21"
measuredparameter = "TGI"
result = "> 100 µM"

[[record]]
smilesinput = "CCOC(=N)CC(=O)Nc1cccc(C)c1C"
measuredparameter = "TGI"
result = "> 100 µM"

[[record]]
smilesinput = "Cc1cc(I)cc(CN(C)CCCN2CCOCC2)c1O"
measuredparameter = "TGI"
result = "48 µM"

[[record]]
smilesinput = "O=c1c2c([N+](=O)[O-])cccc2nc2[nH]c3ccccc3n12"
measuredparameter = "TGI"
result = "> 75 µM"

[[record]]
smilesinput = "Oc1cn(-c2ccc(Cl)cc2)nc1-c1n[nH]c(=S)n1C1CCCCC1"
measuredparameter = "TGI"
result = "> 100 µM"

[[record]]
smilesinput = "Cc1cn2c(/C=C3\\C(=O)N(C)c4ccc(O)cc43)c(C)nc2s1"
measuredparameter = "TGI"
result = "9.91 µM"

